# testedSystem: T1, human CD37 (human, UniProt P11049 1-278)
# T1 sequence: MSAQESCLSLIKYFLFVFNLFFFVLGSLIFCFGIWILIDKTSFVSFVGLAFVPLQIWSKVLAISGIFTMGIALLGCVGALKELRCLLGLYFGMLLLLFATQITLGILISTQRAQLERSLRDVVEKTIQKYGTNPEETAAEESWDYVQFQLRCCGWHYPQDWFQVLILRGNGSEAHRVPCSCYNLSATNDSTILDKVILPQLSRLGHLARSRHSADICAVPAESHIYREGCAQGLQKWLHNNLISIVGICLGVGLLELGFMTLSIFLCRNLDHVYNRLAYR
# experiment: cell-based or functional assay
The threshold is 0.2 nM. Values of EC50 of in vitro cytotoxicity, WST-8 assay, Daudi cells beneath it are tagged met; values meeting or exceeding it are tagged not met.

Q. Below 0.2 nM on EC50 of in vitro cytotoxicity, WST-8 assay, Daudi cells? Entry huCD37-56-SMCC-DM1 (antibody, human IgG1, kappa, V domains shown, DM1 attached through SMCC linker; attachment residues and load not stated, SMCC-DM1 conjugate of huCD37-56) VH: QVQLQESGPGLVKPSQSLSLTCTVSGYSITSGFAWHWIRQFPGKGLEWMGYIHYSGGTNYNPSLKSRVSITRDTSKNQFFLQLNSVTAADTATYYCARGYYGFGAWFAYWGQGTLVPVSA VL: DIVLTQSPAFMSASPGEKVTMTCSASSSVTYMHWYQQKPDQSPKRWIYDTSNLASGVPSRFSGGGSGTDYSLTISSMEAEDAATYYCQQWISDPPTFGQGTKLEIKR
A. not met

Q. Below 0.2 nM on EC50 of in vitro cytotoxicity, WST-8 assay, Daudi cells? Entry huCD37-3-SMCC-DM1 (antibody, human IgG1, kappa, V domains shown, DM1 attached through SMCC linker; attachment residues not stated; 3.5-4 DM1 per antibody, heavy chain version as for huCD37-3, see its note) VH: QVQVQESGPGLVAPSQTLSITCTVSGFSLTTSGVSWVRQPPGKGLEWLGVIWGDGSTNYHPSLKSRLSIKKDHSKSQVFLKLNSLTAADTATYYCAKGGYSLAHWGQGTLVTVSS VL: DIQMTQSPSSLSVSVGERVTITCRASENIRSNLAWYQQKPGKSPKLLVNVATNLADGVPSRFSGSGSGTDYSLKINSLQPEDFGTYYCQHYWGTTWTFGQGTKLEIKR
A. met

Q. Below 0.2 nM on EC50 of in vitro cytotoxicity, WST-8 assay, Daudi cells? Entry huCD37-57-SMCC-DM1 (antibody, human IgG1, kappa, V domains shown, DM1 attached through SMCC linker; attachment residues and load not stated, SMCC-DM1 conjugate of huCD37-57) VH: QVQLQESGPGLLKPSQSLSLTCTVSGYSITSGFAWHWIRQFPGKGLEWMGYILYSGSTVYSPSLKSRISITRDTSKNQFFLQLNSVTAADTATYYCARGYYGYGAWFAYWGQGTLVTVSA VL: EIVLTQSPATMSASPGERVTMTCSATSSVTYMHWYQQKPGQSPRRWIYDTSNLASGVPARFSGSGSGTSYSLTISSMEAEDAATYYCQQWSDNPPTFGQGTKLEIKR
A. not met

Q. Below 0.2 nM on EC50 of in vitro cytotoxicity, WST-8 assay, Daudi cells? Entry huCD37-38-SMCC-DM1 (antibody, human IgG1, kappa, V domains shown, DM1 attached through SMCC linker; attachment residues and load not stated, SMCC-DM1 conjugate of huCD37-38) VH: QVQLQESGPGLVKPSQSLSLTCTVSGYSITSGFGWHWIRQFPGKGLEWMAYILYSGGTDYNPSLKSRISITRDTSKNQFFLRLSSVTAADTATYYCARGYYGYGAWFVYWGQGTLVTVSS VL: DIVLTQSPASMSASPGERVTMTCSASSSVTYMHWYQQKPGTSPKRWIYDTSKLASGVPARFSGSGSGTSYSLTISSMEAEDAATYYCQQWISNPPTFGGGTKLEIKR
A. met

Consider the additional binder presented here.
Q. Below 0.2 nM on EC50 of in vitro cytotoxicity, WST-8 assay, Daudi cells? Entry huCD37-50-SMCC-DM1 (antibody, human IgG1, kappa, V domains shown, DM1 attached through SMCC linker; attachment residues and load not stated, SMCC-DM1 conjugate of huCD37-50) VH: QVQLQESGPGLLKPSQSLSLTCTVSGYSITSGFAWHWIRQHPGNKLEWMGYILYSGSTVYSPSLKSRISITRDTSKNHFFLQLNSVTAADTATYYCARGYYGYGAWFAYWGQGTLVTVSA VL: EIVLTQSPATMSASPGERVTMTCSATSSVTYMHWYQQKPGQSPKRWIYDTSNLPYGVPARFSGSGSGTSYSLTISSMEAEDAATYYCQQWSDNPPTFGQGTKLEIKR
A. met
